- Test System: T1, biotinylated human recombinant IL-12Rβ2 (produced in-house) (human, UniProt Q99665 24-622, random biotinylated)
- T1 construct: Soluble recombinant protein used for panning, ELISA and BLI; also called hIL-12RB2; hIL12RB2
- T1 sequence: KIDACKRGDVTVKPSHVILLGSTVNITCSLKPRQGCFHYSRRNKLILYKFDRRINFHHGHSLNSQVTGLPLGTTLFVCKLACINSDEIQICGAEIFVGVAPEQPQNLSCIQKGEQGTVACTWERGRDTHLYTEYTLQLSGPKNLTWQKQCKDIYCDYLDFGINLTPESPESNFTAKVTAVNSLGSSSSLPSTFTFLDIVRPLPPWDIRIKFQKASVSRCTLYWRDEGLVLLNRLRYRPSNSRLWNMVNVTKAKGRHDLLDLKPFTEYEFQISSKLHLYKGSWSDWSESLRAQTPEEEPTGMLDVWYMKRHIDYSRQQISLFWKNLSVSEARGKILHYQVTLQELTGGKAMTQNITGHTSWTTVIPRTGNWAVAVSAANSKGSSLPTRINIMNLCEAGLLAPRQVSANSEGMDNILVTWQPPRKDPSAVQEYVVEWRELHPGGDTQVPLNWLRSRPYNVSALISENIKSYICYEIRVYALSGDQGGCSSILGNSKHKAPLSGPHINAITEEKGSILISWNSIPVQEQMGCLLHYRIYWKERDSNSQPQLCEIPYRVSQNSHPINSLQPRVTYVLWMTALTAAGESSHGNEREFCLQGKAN
- Run Description: ELISA, periplasmic extract on biotinylated human IL-12Rβ2; signal over streptavidin control well
# hIL12RB2/control (ELISA) listing for each entry below
Include the unit right after the number.

Below, 2 binders whose answers are already recorded.
Binder | hIL12RB2/control (ELISA)
anti-IL-12Rβ2 VHH clone 3CAHS171 (clone ID 20407) (VHH, Tested as periplasmic extract; not shown: C-terminal HA tag) VHH: QVQLQESGGGLVQPGGSLRLTCVASGFPFSTHAMSWVRQPPGKGREWISAINSGGDSTDYADSVMGRFTISRDNAKNTVYLQMNSLKSEDTAAYYCAKYEDCSDYDCSSRASWGQGTQVTVSS | 3.27 ratio
anti-IL-12Rβ2 VHH clone 3CRH25 (clone ID 20378) (VHH, Tested as periplasmic extract; not shown: C-terminal HA tag) VHH: QVQLQESGGGLVQAGDSLRLSCTASGHTFSRYTTIGWFRQAPGKDREFVAAIRWSGDITDYADAVKGRFTISRDNVKNTVYLQMNSLNPEDTAVYYCARGYSEYGVLSRNRGLYAYWGQGTQVTVSS | 5.16 ratio

The recorded hIL12RB2/control (ELISA) for entry anti-IL-12Rβ2 VHH clone 3CRHS9 (clone ID 20415) (VHH, Tested as periplasmic extract; also called 3CRMS9; not shown: C-terminal HA tag) VHH: QVQLQESGGGLVQPGGSLRLSCTASGSIVSIYNMDWYRQAPGNEREWVASITSSGDPYYDGSAKGRFTISRDNAKMTVYLQMNSLKPEDTAVYYCKVPTEKGNYWGQGTQVTVSS equals 5.08 ratio

The recorded hIL12RB2/control (ELISA) for entry anti-IL-12Rβ2 VHH clone 3CRHS54 (clone ID 20422) (VHH, Tested as periplasmic extract (P.E.) from the pMECS vector; not shown: C-terminal HA tag) VHH: QVQLQESGGGLVQPGGSLRLSCTASGSIVSIYNMDWYRQAPGNEREWVASITSSGDPYYDGSAKGRFTISRDNAKMTVYLQMNSLEPEDTAVYFCKVPTEKGNYWGQGTQVTVSS equals 7.85 ratio
